# Target System: 3α-HSD (Rattus norvegicus)
# Construct: the purified 3α-HSD of rat liver cytosol
# Sequence (P23457 whole entry): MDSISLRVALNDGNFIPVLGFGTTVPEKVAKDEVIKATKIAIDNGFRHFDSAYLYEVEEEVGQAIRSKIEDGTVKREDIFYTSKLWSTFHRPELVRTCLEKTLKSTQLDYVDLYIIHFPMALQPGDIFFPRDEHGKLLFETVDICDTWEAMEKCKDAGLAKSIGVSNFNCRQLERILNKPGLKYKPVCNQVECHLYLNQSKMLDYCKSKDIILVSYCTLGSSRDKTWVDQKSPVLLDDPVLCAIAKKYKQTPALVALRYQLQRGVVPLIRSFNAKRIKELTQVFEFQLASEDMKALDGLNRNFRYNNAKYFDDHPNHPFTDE
# Procedure Text: time dependent inactivation of purified 3α-HSD
# Test Parameters: method of Kitz and Wilson; in the presence of NAD+
Measure Name: pKi
Notebook: values listed as pKi are -log10 of the concentration (mol/L).

Look up and state reported pKi for C=CC(O)c1ccc([N+](=O)[O-])cc1 (stereo not shown)
2.92

* * *

# Target System: cyclooxygenase (Ovis aries, UniProt P05979)
# Construct: cyclooxygenase obtained from sheep seminal vesicle microsomes
# Sequence (P05979 25-600): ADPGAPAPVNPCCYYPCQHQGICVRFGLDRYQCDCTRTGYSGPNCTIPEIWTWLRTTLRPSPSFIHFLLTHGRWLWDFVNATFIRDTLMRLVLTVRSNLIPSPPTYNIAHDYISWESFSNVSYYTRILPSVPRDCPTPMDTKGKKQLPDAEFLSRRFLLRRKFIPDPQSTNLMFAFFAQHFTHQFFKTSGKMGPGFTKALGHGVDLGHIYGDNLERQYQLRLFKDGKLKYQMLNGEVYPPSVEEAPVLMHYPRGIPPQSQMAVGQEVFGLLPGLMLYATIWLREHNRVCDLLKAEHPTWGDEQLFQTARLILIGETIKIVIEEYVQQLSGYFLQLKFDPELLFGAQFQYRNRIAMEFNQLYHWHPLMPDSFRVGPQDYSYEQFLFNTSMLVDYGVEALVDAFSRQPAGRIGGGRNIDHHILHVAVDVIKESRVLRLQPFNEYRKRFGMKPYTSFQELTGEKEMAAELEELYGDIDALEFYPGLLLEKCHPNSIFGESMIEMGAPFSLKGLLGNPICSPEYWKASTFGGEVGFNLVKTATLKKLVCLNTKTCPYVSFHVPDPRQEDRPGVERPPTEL
# Procedure Text: time dependent inactivation of semi-purified cyclooxygenase (oxygen consumption)
# Test Parameters: semi-purified cyclooxygenase from sheep seminal vesicle microsomes; read-out: concentration required to inactivate 50% of the enzyme activity
Measure Name: IC50 (µM)
// units = µM; emit number, no label

Look up and state reported IC50 for C=CC(=O)c1ccc([N+](=O)[O-])cc1 [III, 1-(4'-nitrophenyl)-2-propen-1-one]
837
